# Study target: Dickkopf-related protein 1 (Homo sapiens)
# Protocol description: DKK1 binders on small-molecule microarrays, primary screen, biochemical, small-molecule microarray, 635 nm fluorescence scan (AID 1106);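 note: score merges emission near 667 nm with signal to noise over three replicate slides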
# Run conditions: DKK1 binding, higher = more signal
Measured metric: composite z-score

compound=C#CCCCON=C1C[C@@H](O)[C@@H](O)[C@@H]2[C@@H]3C(=O)N(Cc4ccccc4)C(=O)[C@@H]3CC[C@@H]12 measured_metric="composite z-score" test_value=-0.211
compound=CC(C)CON=C1C[C@@H](O)[C@@H](O)[C@@H]2[C@@H]3C(=O)N(C(C)(C)C)C(=O)[C@@H]3CC[C@H]12 measured_metric="composite z-score" test_value=-0.82
compound=CC(CCN1CCc2nc(-c3ccccc3)c(-c3ccccc3)cc2C1)=NOC[C@@H](O)COCc1ccco1 measured_metric="composite z-score" test_value=1.08
compound=COC(=O)CC=C[C@@H](C)[C@@H](C=NO[C@@H]1O[C@H](COC(C)=O)[C@@H](OC(C)=O)[C@H](OC(C)=O)[C@H]1OC(C)=O)OC measured_metric="composite z-score" test_value=-2.27
compound="CCOC(=O)[C@H](CC(C)C)NC(=O)CCC1CC(OC(=O)NCc2cccc3ccccc23)CC2(CCCC(COC(=O)NCCCN3CCCC3=O)O2)O1 (some centres not stated)" measured_metric="composite z-score" test_value=0.583
compound="CC(CCN1CCCc2nc(C)c(C)cc21)=NOC(C)CN1CCCCc2nc(C)c(C)cc21 (configuration not stated)" measured_metric="composite z-score" test_value=1.18
compound=O=C1[C@H]2[C@H]3[C@H](O)[C@H](O)CC(=NOC[C@@H](O)COCc4ccco4)[C@H]3CC[C@H]2C(=O)N1c1ccc(F)cc1F measured_metric="composite z-score" test_value=-0.301
